TESTED ON: GABAA receptor ([35S]-TBPS binding, rat brain cortical membranes)
PROTOCOL SUMMARY: Steroid inhibition of [35S]-TBPS binding (radioligand displacement)
RUN CONDITIONS: 3 nM [35S]-TBPS, in the presence of 5 μM GABA
pIC50: −log10 of the molar value.
For each of the compounds below, state its pIC50.

Incoming: Give its pIC50 value. Item: COC[C@]12CC[C@@](C)(O)C[C@H]1CC[C@H]1[C@@H]3CC[C@H](C(=O)Cn4cc(SC)cn4)[C@@]3(C)CC[C@@H]12 [Compound 34]
Outgoing: 7.30 to 8.00

Incoming: Param item: CC(C)OC[C@]12CC[C@@](C)(O)C[C@H]1CC[C@H]1[C@@H]3CC[C@H](C(=O)Cn4nnc5c(F)c(F)ccc54)[C@@]3(C)CC[C@@H]12 [Compound 68]
Outgoing: > 8.00

Incoming: // query: COC[C@]12CC[C@@](C)(O)C[C@@H]1CC[C@H]1[C@@H]3CC[C@H](C(=O)Cn4nnc5c(F)c(Cl)ccc54)[C@@]3(C)CC[C@@H]12 [Compound 51]
Outgoing: > 8.00

Incoming: COC[C@]12CC[C@@](C)(O)C[C@@H]1CC[C@H]1[C@@H]3CC[C@H](C(=O)Cn4cc5c(OC)cccc5n4)[C@@]3(C)CC[C@@H]12 [Compound 40] ?
Outgoing: 7.00 to 7.30

Incoming: Item: COC[C@]12CC[C@@](C)(O)C[C@H]1CC[C@H]1[C@@H]3CC[C@H](C(=O)Cn4cc([S+](C)[O-])cn4)[C@@]3(C)CC[C@@H]12 (stereo partly drawn) [Compound 35]
Outgoing: < 6.30

Incoming: Cool, now COC[C@]12CC[C@@](C)(O)C[C@H]1CC[C@H]1[C@@H]3CC[C@H](C(=O)Cn4nnc5ccccc54)[C@@]3(C)CC[C@@H]12 [Compound 18]
Outgoing: > 8.00

====

Please go through the items and note down their IC50.
TESTED ON: GABAA receptor ([35S]-TBPS binding, rat brain cortical membranes)
PROTOCOL SUMMARY: Steroid inhibition of [35S]-TBPS binding (radioligand displacement)
RUN CONDITIONS: 3 nM [35S]-TBPS, in the presence of 5 μM GABA

Incoming: Could you share which IC50 value was measured for COC[C@]12CC[C@@](C)(O)C[C@H]1CC[C@H]1[C@@H]3CC[C@H](C(=O)Cn4cc5cc(F)ccc5n4)[C@@]3(C)CC[C@@H]12 [Compound 17] ?
Outgoing: 0.01 to 0.05 µM

Incoming: Next up: COC[C@]12CC[C@@](C)(O)C[C@H]1CC[C@H]1[C@@H]3CC[C@H](C(=O)Cn4ccnc4C)[C@@]3(C)CC[C@@H]12 [Compound 64]
Outgoing: 0.1 to 0.5 µM

Incoming: Entry COC[C@]12CC[C@@](C)(O)C[C@H]1CC[C@H]1[C@@H]3CC[C@H](C(=O)Cn4nnc5ccc(OC)cc54)[C@@]3(C)CC[C@@H]12 [Compound 25] please
Outgoing: < 0.01 µM

Incoming: Let us now turn to COC[C@]12CC[C@@](C)(O)C[C@@H]1CC[C@H]1[C@@H]3CC[C@H](C(=O)Cn4cc5c(OC)cccc5n4)[C@@]3(C)CC[C@@H]12 [Compound 44]
Outgoing: 0.01 to 0.05 µM

Incoming: Same again, this time with COC[C@]12CC[C@@](C)(O)C[C@@H]1CC[C@H]1[C@@H]3CC[C@H](C(=O)Cn4ncc5ccc(OC)cc54)[C@@]3(C)CC[C@@H]12 [Compound 49]
Outgoing: 0.05 to 0.1 µM

Incoming: Subsequent entry: COC[C@]12CC[C@@](C)(O)C[C@H]1CC[C@H]1[C@@H]3CC[C@H](C(=O)Cn4nnc5c(OC)cccc54)[C@@]3(C)CC[C@@H]12 [Compound 28]
Outgoing: < 0.01 µM

Origin of the recorded values: patent US10329320B2
